Please go through the items and note down their protein stability index.
ASSAY_TEXT: protein stability index of a GFP-peptide fusion (yeast GPS) (PSI 1-4); higher = more stable; sorted into four equal gates, so the index is relative within each strain
EXPERIMENTAL_PARAMETERS: san1∆
Note: the reply should be a number with no unit written.

Quick note, protein stability index for SKLSKNISFYKLHVNWN [SIN4] landed at 2.02

Quick note, protein stability index for EPIYGVQYKLLSISVPS [SNU114] landed at 2.02

Quick note, protein stability index for TSCTIPKAVVDHINGSG [GAL11] landed at 1.24

Quick note, protein stability index for AAKEGLALSSNISRDFQ [COR1] landed at 3.13

Quick note, protein stability index for KGRNNESNNKKYPIFTG [YDL088C/ASM4] landed at 2.67

Quick note, protein stability index for VIFKIRDRTSGQKLLAI [SRB4] landed at 3.5

Quick note, protein stability index for LIHPENFTCNRKILNFK [SWI1] landed at 2.37

Quick note, protein stability index for RQNRNQEIFDANVQRLK [RPL13A] landed at 3.19

Quick note, protein stability index for ETISNVAKTAPNSNKTH [SNF2] landed at 2.96

Quick note, protein stability index for LSHIVYFLVLSPYGNLQ [RPN5] landed at 1.25

Quick note, protein stability index for ELNVKHVKQCQETCDKL [SMC2] landed at 3.09

Quick note, protein stability index for AGSTGFSFGQNNNNTNT [YGR119C/NUP57] landed at 2.32

Quick note, protein stability index for SKPESSVLQLIVSEDHI [MED1] landed at 2.06

Quick note, protein stability index for SLIENKKAKLVLIANDV [RPL8B] landed at 2.99

Quick note, protein stability index for KTKAMVPPINCIFNFLQ [SME1] landed at 1.97

Quick note, protein stability index for IPGEYITYALSGYVRSR [RPS21B] landed at 2.39

Quick note, protein stability index for ESWFKALAGSEINWRHA [FAS1] landed at 2.63

Quick note, protein stability index for ARDLATMTYEEVAKRLV [FAS1] landed at 3.12

Quick note, protein stability index for DLTFKLADILKANISLE [RPO21] landed at 2.46

Quick note, protein stability index for KTLKRMIKESSTANPNI [POP1] landed at 2.28

====

ASSAY_TEXT: protein stability index of a GFP-peptide fusion (yeast GPS) (PSI 1-4); higher = more stable; sorted into four equal gates, so the index is relative within each strain
EXPERIMENTAL_PARAMETERS: ubr1∆
Please go through the items and note down their protein stability index.
Note: the reply should be a number with no unit written.

Quick note, protein stability index for IPDFRSSEGFYSKIKHL [SIR2] landed at 2.45

Quick note, protein stability index for EKIKKINYHQYISKAQN [SSN2] landed at 2.15

Quick note, protein stability index for FFMSERSSRLHIVYSLL [YML103C/NUP188] landed at 2.08

Quick note, protein stability index for VRHGRAGATTSRFIPLK [RPS15] landed at 3.06

Quick note, protein stability index for NATLQALYRVNDLRDMI [UBP6] landed at 3.05

Quick note, protein stability index for PGSSITETEVEREQPQE [SRB4] landed at 3.35

Quick note, protein stability index for PIPDARNAALRAKAEAA [SCL1] landed at 2.34

Quick note, protein stability index for YGHVFLGITGLATDVTT [PUP3] landed at 2.29

Quick note, protein stability index for IRRYCDVVAHRQLAGAI [DIS3] landed at 2.18

Quick note, protein stability index for GGNSTQNTSNMNAGGLF [YGR119C/NUP57] landed at 3.19

Quick note, protein stability index for KNSFQQALQMKAMDIPI [SWP82] landed at 1.59

Quick note, protein stability index for TKLIQYEHNGRTLEAIT [CSL4] landed at 2.29

Quick note, protein stability index for GITYRREDMPFTAEGIV [RPB2] landed at 2.07

Quick note, protein stability index for FAAAPNDTSSGTNAMLP [SNF5] landed at 2.89

Quick note, protein stability index for LHYCVSCAIHARIVRVR [RPS26A] landed at 1.2

Quick note, protein stability index for LNELYQTQQDLPKVRYN [NSL1] landed at 3.03

Quick note, protein stability index for KPPISDSVFSFGPKKEN [YLR335W/NUP2] landed at 2.94

Quick note, protein stability index for RKYDLFQNLELETEQLS [SMC2] landed at 2.17

Quick note, protein stability index for QMSLEANVVDITNDWEQ [YJR042W/NUP85] landed at 2.87

Quick note, protein stability index for MHKQLAYILAAQKTSFE [RPN1] landed at 2.43

Quick note, protein stability index for LNIRIQTYGETTAVDAL [RPC19] landed at 1.15

Quick note, protein stability index for ERKKQSDVLRFLQRVRV [RPL15B] landed at 2.12

Quick note, protein stability index for DVNTNANANANATANAT [SNF11] landed at 3.32

Quick note, protein stability index for ASYAKIEIKISDPLTVF [SNU114] landed at 1.45

Quick note, protein stability index for VNCLELLINTNFNKFFK [PCI8] landed at 1.99

Quick note, protein stability index for RETNDDIWRVAGKFELL [SNF2] landed at 2.8

Quick note, protein stability index for KNGAQDLVLQILEDTAT [RRI2] landed at 3.18

Quick note, protein stability index for PLYARYINVNPQEETIT [ECM29] landed at 2.69

Quick note, protein stability index for IFWGIRLAKSTENEIPN [BRR2] landed at 1.49

Quick note, protein stability index for EFLYSKAGREELERVNV [QCR8] landed at 3.27

Quick note, protein stability index for VRTSATFRLPKTLKLAR [RPL25] landed at 2.72

Quick note, protein stability index for TPNMVNSEISNLPKDKS [SSN2] landed at 2.9

Quick note, protein stability index for FSRFVDQFIRHVLRGVE [YCG1] landed at 1.72

Quick note, protein stability index for RFRKLTSQEINDRLEAL [PRE8] landed at 2.91

Quick note, protein stability index for PTNCPLRQFKTCPVEVI [BRR2] landed at 2.9

Quick note, protein stability index for TLQLYMVHREFLKLANG [RGR1] landed at 2.28

Quick note, protein stability index for DQEIVIQQLHSVLNPFL [ISW2] landed at 2.26

Quick note, protein stability index for ERKLKFSNRFLPVASPF [FAS1] landed at 2.85

Quick note, protein stability index for IAGINKKKGLDENTSGK [PRP28] landed at 3.6

Quick note, protein stability index for ESNRQSVIVDSKVTVPP [ESC2] landed at 2.81

Quick note, protein stability index for TLQTISFLGYLRYVKQI [ISW2] landed at 1.96

Quick note, protein stability index for IEALYDDDTFSDREMAA [RPN2] landed at 2.13

Quick note, protein stability index for DVQARRQFVSNVRSVIR [RPP1] landed at 2.44

Quick note, protein stability index for IIPSRMGEAQTGANFDD [REC8] landed at 2.74

Quick note, protein stability index for MAAQKSFRIKQKMAKAK [RPL39] landed at 2.74
